Tested on: EVSA-T (human breast carcinoma)
ASSAY_INFO: Anti-proliferative activity, Alamar Blue assay, EVSA-T
Assay type: cell-based
ASSAY_CONDITIONS: Homo sapiens, EVSA-T; read-out: EC50 in EVSA-T cell line assays
pEC50: −log10 of the molar value. Counter-ions that a name gives are not always drawn.
Form field: pEC50 (one value per entry).

Look over these answered cases.
>  <COMPOUND>
C[C@@H]1CN(CC(=O)N2CC(C)(C)c3ncc(Cc4ccc(F)cc4)cc32)[C@@H](CN2CC(C)(C)CC2=O)CN1 [Example 1, dihydrochloride]

>  <TARGET_OR_SYSTEM>
EVSA-T (human breast carcinoma)

>  <pEC50>
> 6.00

$$$$
>  <COMPOUND>
C[C@@H]1CN(CC(=O)N2CC(C)(C)c3nnc(Cc4ccc(F)cc4F)cc32)[C@@H](CN2Cc3ncccc3C2=O)CN1

>  <TARGET_OR_SYSTEM>
EVSA-T (human breast carcinoma)

>  <pEC50>
> 6.00

$$$$
>  <COMPOUND>
C[C@@H]1CN(CC(=O)N2CC(C)(C)c3ncc(Cc4ccc(F)cc4)cc32)[C@@H](CN2Cc3ccncc3C2=O)CN1 [Example 19, dihydrochloride]

>  <TARGET_OR_SYSTEM>
EVSA-T (human breast carcinoma)

>  <pEC50>
> 6.00

$$$$

Could you now look at the following compound, please?
Find the measured pEC50: item CCCC(F)(F)c1cc2c(cn1)C(C)(C)CN2C(=O)CN1C[C@@H](C)NC[C@@H]1CN1Cc2ccncc2C1=O [Example 78, dihydrochloride] , target or system EVSA-T (human breast carcinoma).
> 6.00

###

TARGET_OR_SYSTEM: BIR3 domain of human XIAP (residues 252-350) (Homo sapiens)
Construct: BIR3 domain of human XIAP (residues 252-350); His-tag (cleaved yes); made in house; host or cells: Escherichia coli
ASSAY_INFO: XIAP in vitro competitive displacement binding assay (fluorescence polarization)
ASSAY_CONDITIONS: 1 h, percent inhibition (PI) at 0.04 μM; read-out: Xiap IC50 or PI μM
Structures can show the parent of a compound that is named as a salt.
Classification field: enter true (1) for inhibition at 0.04 µM values not below 90%, false (0) for values below it.

# example entries with known answers
>  <MOLECULE>
CC1=C(C)C(=O)N(C[C@H]2CN[C@H](C)CN2CC(=O)N2CC(C)(C)c3ncc(Cc4ccc(F)cc4F)cc32)C1 [Example 24, dihydrochloride]

>  <LABEL_CLASS>
false (0)

$$$$
>  <MOLECULE>
C[C@@H]1CN(CC(=O)N2CC(C)(C)c3cnc(Cc4ccc(F)cc4)cc32)[C@@H](CN2Cc3ccccc3C2=O)CN1 [Example 60, dihydrochloride]

>  <LABEL_CLASS>
true (1)

$$$$
>  <MOLECULE>
C[C@@H]1CN(CC(=O)N2CC(C)(C)c3ncc(Cc4ccc(F)cc4F)cc32)[C@@H](CN2Cc3ccc(C#N)cc3C2=O)CN1 [Example 112, dihydrochloride]

>  <LABEL_CLASS>
false (0)

$$$$

Shift focus to the following entry.
Tell me whether inhibition at 0.04 µM is at least 90% here: CCCC(F)(F)c1cc2c(cn1)C(C)(C)CN2C(=O)CN1C[C@@H](C)NC[C@@H]1CN1C[C@@H](C)CC1=O [Example 75, dihydrochloride]
false (0)

###

TARGET_OR_SYSTEM: BIR3 domain of human XIAP (residues 252-350) (Homo sapiens, UniProt P98170)
Construct: BIR3 domain of human XIAP (residues 252-350); His-tag (cleaved yes); made in house; host or cells: Escherichia coli
Sequence (P98170 252-350): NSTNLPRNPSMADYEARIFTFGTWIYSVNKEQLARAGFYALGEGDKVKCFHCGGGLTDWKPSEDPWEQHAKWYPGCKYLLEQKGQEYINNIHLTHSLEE
ASSAY_INFO: XIAP in vitro competitive displacement binding assay (fluorescence polarization)
ASSAY_CONDITIONS: 1 h, percent inhibition (PI) at 0.04 μM; read-out: Xiap IC50 or PI μM
Counter-ions that a name gives are not always drawn.
Classification field: enter rule met for inhibition at 0.04 µM values not below 50%, rule not met for values below it.

# example entries with known answers
>  <COMPOUND>
CCCC(O)c1cnc2c(c1)N(C(=O)CN1C[C@@H](C)NC[C@@H]1CN1Cc3ccccc3C1=O)CC2(C)C (single isomer, unassigned) [Example 90, dihydrochloride]

>  <TARGET_OR_SYSTEM>
BIR3 domain of human XIAP (residues 252-350) (Homo sapiens, UniProt P98170)

>  <LABEL_CLASS>
rule met

$$$$
>  <COMPOUND>
C[C@@H]1CC(=O)N(C[C@H]2CN[C@H](C)CN2CC(=O)N2CC(C)(C)c3ncc(Cc4ccc(F)cc4F)cc32)C1 [Example 70, dihydrochloride]

>  <TARGET_OR_SYSTEM>
BIR3 domain of human XIAP (residues 252-350) (Homo sapiens, UniProt P98170)

>  <LABEL_CLASS>
rule met

$$$$
>  <COMPOUND>
CCC1CN(C[C@H]2CN[C@H](C)CN2CC(=O)N2CC(C)(C)c3ncc([C@@H](O)c4ccc(F)cc4)cc32)C(=O)CO1 (single isomer, unassigned) [Example 110, dihydrochloride]

>  <TARGET_OR_SYSTEM>
BIR3 domain of human XIAP (residues 252-350) (Homo sapiens, UniProt P98170)

>  <LABEL_CLASS>
rule not met

$$$$
>  <COMPOUND>
CC1=C(C)C(=O)N(C[C@H]2CN[C@H](C)CN2CC(=O)N2CC(C)(C)c3cnc(Cc4ccc(F)cc4)cc32)C1 [Example 36, dihydrochloride]

>  <TARGET_OR_SYSTEM>
BIR3 domain of human XIAP (residues 252-350) (Homo sapiens, UniProt P98170)

>  <LABEL_CLASS>
rule met

$$$$

Shift focus to the following entry.
Tell me whether inhibition at 0.04 µM is at least 50% here: COc1ccc2c(c1)CN(C[C@H]1CN[C@H](C)CN1CC(=O)N1CC(C)(C)c3cnc(Cc4ccc(F)cc4)cc31)C2=O [Example 92, dihydrochloride]
rule met

###

Form field: inhibition at 0.04 µM (one value per entry).
TARGET_OR_SYSTEM: BIR3 domain of human XIAP (residues 252-350) (Homo sapiens, UniProt P98170)
Construct: BIR3 domain of human XIAP (residues 252-350); His-tag (cleaved yes); made in house; host or cells: Escherichia coli
ASSAY_INFO: XIAP in vitro competitive displacement binding assay (fluorescence polarization)
ASSAY_CONDITIONS: 1 h, percent inhibition (PI) at 0.04 μM; read-out: Xiap IC50 or PI μM
Where a name gives a salt, the structure may show the parent alone.
Numbers only; they are read as %.

>  <COMPOUND>
CCCC(F)(F)c1cc2c(cn1)C(C)(C)CN2C(=O)CN1C[C@@H](C)NC[C@@H]1CN1Cc2ncccc2C1=O [Example 68, dihydrochloride]

>  <TARGET_OR_SYSTEM>
BIR3 domain of human XIAP (residues 252-350) (Homo sapiens, UniProt P98170)

>  <MEASUREMENT_UNITS>
%

>  <TEST_VALUE>
72

$$$$
>  <COMPOUND>
CCCC(F)(F)c1cc2c(cn1)C(C)(C)CN2C(=O)CN1C[C@@H](C)NC[C@@H]1CN1Cc2ccncc2C1=O [Example 78, dihydrochloride]

>  <TARGET_OR_SYSTEM>
BIR3 domain of human XIAP (residues 252-350) (Homo sapiens, UniProt P98170)

>  <MEASUREMENT_UNITS>
%

>  <TEST_VALUE>
64

$$$$

State the recorded inhibition at 0.04 µM for this entry: `CC1=C(C)C(=O)N(C[C@H]2CN[C@H](C)CN2CC(=O)N2CC(C)(C)c3nnc(Cc4ccc(F)cc4F)cc32)C1`
66

###

Form field: log10(EC50) (one value per entry).
System: EVSA-T (human breast carcinoma)
ASSAY_INFO: Anti-proliferative activity, Alamar Blue assay, EVSA-T
Type: cell-based
ASSAY_CONDITIONS: Homo sapiens, EVSA-T, 72 h, EVSA-T cell line, 72 hours, Alamar Blue; read-out: EVSA-T prolif
Counter-ions that a name gives are not always drawn.
The common logarithm of EC50 in nM is what is listed.

>  <COMPOUND>
C[C@@H]1CN(CC(=O)N2CC(C)(C)c3nnc(Cc4ccc(F)cc4F)cc32)[C@@H](CN2Cc3cc(O)ccc3C2=O)CN1 [Example 108, dihydrochloride]

>  <log10(EC50)>
1.04

$$$$
>  <COMPOUND>
CCCC(F)(F)c1cc2c(cn1)C(C)(C)CN2C(=O)CN1C[C@@H](C)NC[C@@H]1CN1Cc2ncccc2C1=O [Example 68, dihydrochloride]

>  <log10(EC50)>
0.38

$$$$
>  <COMPOUND>
C[C@@H]1CN(CC(=O)N2CC(C)(C)c3ncc(Cc4ccc(F)cc4)cc32)[C@@H](CN2CCC(C)(C)C2=O)CN1 [Example 4, dihydrochloride]

>  <log10(EC50)>
0.48

$$$$
>  <COMPOUND>
C[C@@H]1CN(CC(=O)N2CC(C)(C)c3cnc(Cc4ccc(F)cc4F)cc32)[C@@H](CN2Cc3ccccc3C2=O)CN1 [Example 77, dihydrochloride]

>  <log10(EC50)>
-0.77

$$$$
>  <COMPOUND>
C[C@@H]1CN(CC(=O)N2CC(C)(C)c3cnc(Cc4ccc(F)cc4F)cc32)[C@@H](CN2C[C@@H](C)N(C)CC2=O)CN1 [Example 85, dihydrochloride]

>  <log10(EC50)>
0.65

$$$$

State the recorded log10(EC50) for this entry: CCC1CN(C[C@H]2CN[C@H](C)CN2CC(=O)N2CC(C)(C)c3cnc(Cc4ccc(F)cc4F)cc32)C(=O)CO1 (single isomer, unassigned) [Example 80, dihydrochloride]
0.26
